target: T1, recombinant human HGF (hepatocyte growth factor) (human, UniProt P14210 32-728); assay: SPR (ProteOn), human HGF immobilized on GLC chip, DARPin injected, PBS 0.005% Tween 20
T1 construct: Covalently immobilized on the chip for SPR; also called scatter factor
T1 sequence (P14210 32-728 limits assumed): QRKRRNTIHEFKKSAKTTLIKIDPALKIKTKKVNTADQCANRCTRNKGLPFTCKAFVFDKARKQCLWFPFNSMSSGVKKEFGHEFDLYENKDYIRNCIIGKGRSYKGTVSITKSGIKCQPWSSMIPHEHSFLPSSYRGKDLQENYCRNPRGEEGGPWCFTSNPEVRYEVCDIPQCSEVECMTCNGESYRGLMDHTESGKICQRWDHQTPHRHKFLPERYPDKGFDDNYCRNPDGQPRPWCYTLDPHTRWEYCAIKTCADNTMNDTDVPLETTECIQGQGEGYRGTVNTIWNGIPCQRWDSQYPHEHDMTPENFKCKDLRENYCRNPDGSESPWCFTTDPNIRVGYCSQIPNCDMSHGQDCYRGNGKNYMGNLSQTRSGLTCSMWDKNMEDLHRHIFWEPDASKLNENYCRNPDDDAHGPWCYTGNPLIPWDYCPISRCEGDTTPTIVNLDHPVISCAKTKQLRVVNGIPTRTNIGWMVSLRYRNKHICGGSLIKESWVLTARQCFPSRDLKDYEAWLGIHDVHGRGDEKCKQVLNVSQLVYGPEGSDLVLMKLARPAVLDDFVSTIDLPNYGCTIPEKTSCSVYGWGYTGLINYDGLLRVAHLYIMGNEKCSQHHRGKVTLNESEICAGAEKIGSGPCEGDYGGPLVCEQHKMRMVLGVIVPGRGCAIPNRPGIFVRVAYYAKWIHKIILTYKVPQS
Threshold 0.05 nM. Kd below it: YES. Kd at it or above: NO.

// below: answered binders
[[record]]
binder = "DARPin #56 (designed binder) MRGSHHHHHHGSDLGKKLLEAARAGQDDEVRILMANGADVNANDFLGLTPLHLAASTGHLEIVEVLLKYGADVNAIDAYGHTPLHLAANNGHLEIVEVLLKYGADVNAIDHFGYTPLHLAAMFGHLEIVEVLLKNGADVNAQDKFGKTAFDISIDNGNEDLAEILQKLN"
qualitative_label = "NO"

[[record]]
binder = "DARPin #57 (designed binder) MRGSHHHHHHGSDLGKKLLEAARAGQDDEVRILMANGADVNAHDYLGLTPLHLAASDGHLEIVEVLLKHGADVNAYDYNGLTPLHLAANNGHLEIVEVLLKYGADVNAFDVAGYTPLHLAAYFGHLEIVEVLLKYGADVNAQDKFGKTAFDISIDNGNEDLAEILQKLN"
qualitative_label = "NO"

[[record]]
binder = "DARPin #43 (designed binder) MRGSHHHHHHGSDLGKKLLEAARAGQDDEVRILMANGADVNAKYEDGLTPLHLAAFYGHLEIVEVLLKHGADVNATDAWGHTPLHLAAYYGHLEIVEVLLKYGADVNTHDKEGMTALHLAALTGHLEIVEVLLKNGADVNAQDKFGKTAFDISIDNGNEDLAEILQKLN"
qualitative_label = "YES"

[[record]]
binder = "DARPin #33 (designed binder) MRGSHHHHHHGSDLGKKLLEAARAGQDDEVRILMANGADVNAHDYSGFTPLHLAAYYGHLEIVEVLLKHGADVNAFDDWGHTPLHLAARYGHLEIVEVLLKYGADVNAEDTEGYTPLHLAAMDGHLEIVEVLLKNGADVNAQDKFGKTAFDISIDNGNEDLAEILQKLN"
qualitative_label = "NO"

[[record]]
binder = "DARPin #38 (designed binder) MRGSHHHHHHGSDLGKKLLEAARAGQDDEVRILMANGADVNATDANGFTPLHLAAFYGHLEIVEVLLKYGADVNAYDNFGLTPLHLAASYGHLEIVEVLLKNGADVYAQDKFGKTAFDISIDNGNEDLAEILQKLN"
qualitative_label = "NO"

[[record]]
binder = "DARPin #58 (designed binder) MRGSHHHHHHGSDLGKKLLEAARAGQDDEVRILMANGADVNAHDYVGLTPLHLAASIGHLEIVEVLLKYGADVNASDYNGFTPLYLAANNGHLEIVEVLLKNGADVNATDSFGYTPLHLAAHYGHLEIVEVLLKNGADVNAQDKFGKTAFDISIDNGNEDLAEILQKLN"
qualitative_label = "NO"


input: Does the reported Kd of DARPin #61 (designed binder) MRGSHHHHHHGSDLGKKLLEAARAGQDDEVRILMANGADVNAEDYLGHTPLHLAASTGHLEIVEVLLKYGADVNAKDRNGLTPLYLAANNGHLEIVEDLLKYGADVNADDDNGTTPLHLAAIFGHLEIVEVLLKYGADVNAQDKFGKTAFDISIDNGNEDLAEILQKLN stay below 0.05 nM?
output: NO

input: Hi there! Is Kd for DARPin #60 (designed binder) MRGSHHHHHHGSDLGMKLLEAARAGQDDEVRILMANGADVNAHDTWGLTPLHLAAFHGHQEIVEVLLKHGADVNAQDFYGKTPLHLAALRGHLEIVEVLLKYGADVNAQDQFGKTAFDISIDNGNEDLAEILQKLN below 0.05 nM, do you know?
output: YES

input: I wonder whether DARPin #37 (designed binder) MRGSHHHHHHGSDLGKKLLEAARAGQDDEVRILMANGADVNATDLTGFTPLHLAAYYGHLEIVEVLLKYGADVNADDRYGLTPLHLAANTGHLEIVEVLLKNGADVNASDSVGTTLLHLAAYIGHPEIVEVLLKYGADVNAQDKFGKTAFDISIDNGNEDLAEILQKLN has Kd below 0.05 nM. Can you tell?
output: YES

Numbers sourced from patent US20160251404A1.
